Test system: Danio rerio Tg(wt1b:EGFP) embryo, pronephros
EXPERIMENT_SUMMARY: glomerular width (mean of left and right), fold change vs DMSO control; higher = wider glomerulus
MEASUREMENT_PARAMETERS: 25 µM; exposure: 24-48 hpf
Structures can show the parent of a compound that is named as a salt.
PROPERTY_MEASURED: glomerular width
Lab note: jot down the number only; don't add units.

COMPOUND	TARGET_ENTITY	glomerular width
Cc1cc(C2CCCCC2)n(O)c(=O)c1	Danio rerio Tg(wt1b:EGFP) embryo, pronephros	0.503

Which measured glomerular width value corresponds to O=C1c2c(O)ccc(O)c2C(=O)c2c(NCCNCCO)ccc(NCCNCCO)c21 [Mitoxantrone dihydrochloride] ?
1.03

Dear colleague, I am looking for the recorded glomerular width of the following compound: NS(=O)(=O)c1cc2c(cc1C(F)(F)F)NC(Cc1ccccc1)NS2(=O)=O (stereo not drawn) [Bendroflumethiazide]
0.896

Data request, read-out glomerular width, for Cn1c(=O)c2c(ncn2C)n(C)c1=O
0.921

---

Tested on: Danio rerio Tg(wt1b:EGFP) embryo, pronephros
EXPERIMENT_SUMMARY: glomerular separation, fold change vs DMSO control; higher = glomeruli further apart (abnormal)
MEASUREMENT_PARAMETERS: 25 µM; exposure: 24-48 hpf
Counter-ions that a name gives are not always drawn.
Please enter 1 (yes) where glomerular separation is greater than or equal to 1, and 0 (no) where it is lower.

Reference set, count: 5
MOLECULE	LABEL_VALUE
CNCC[C@@H](Oc1ccccc1C)c1ccccc1 [Tomoxetine hydrochloride]	1 (yes)
NC(=O)N/N=C/c1ccc([N+](=O)[O-])o1	0 (no)
CC(C)C(=O)Nc1ccc([N+](=O)[O-])c(C(F)(F)F)c1 [Flutamide]	1 (yes)
C=C1C[C@H]2[C@@H]3C=C(C)C4=CC(=O)CC[C@]4(C)[C@H]3CC[C@]2(C)[C@@]1(OC(C)=O)C(C)=O [Melengestrol acetate]	0 (no)
O=C(N/N=C/c1ccc([N+](=O)[O-])o1)c1ccc(O)cc1 [Nifuroxazide]	0 (no)

Quick check: does Cc1ccc(-c2cc(C(F)(F)F)nn2-c2ccc(S(N)(=O)=O)cc2)cc1 have glomerular separation greater than or equal to 1?
0 (no)

Does the reported glomerular separation for CC1CS(=O)(=O)CCN1/N=C/c1ccc([N+](=O)[O-])o1 (stereo not drawn) fall at or above the 1 mark?
0 (no)

Determine whether measured glomerular separation meets or exceeds 1 for CCN(CC)CCOc1ccc(C(=C(Cl)c2ccccc2)c2ccccc2)cc1 [Clomiphene citrate (Z,E)]
1 (yes)

---

System: Danio rerio Tg(wt1b:EGFP) embryo, pronephros
EXPERIMENT_SUMMARY: glomerular separation, fold change vs DMSO control; higher = glomeruli further apart (abnormal)
MEASUREMENT_PARAMETERS: 25 µM; exposure: 24-48 hpf
Structures can show the parent of a compound that is named as a salt.
Recorded glomerular separation, one value per entry.
Form rule: numeric answer, no unit written next to it.

COMPOUND	MEASURED_NUMBER
CC(C)C(=O)c1c(C(C)C)nn2ccccc12	0.785

Fill in the blank: the reported glomerular separation of O=C1CN(/N=C/c2ccc(-c3ccc([N+](=O)[O-])cc3)o2)C(=O)N1 [Dantrolene sodium salt] is ____.
1.46

Query: glomerular separation; subject: Cc1c(Cl)cccc1Nc1ncccc1C(=O)O [Clonixin Lysinate]
4.04

Suppose we examine the compound O=C1CN(/N=C/c2ccc([N+](=O)[O-])o2)C(=O)N1 ; what glomerular separation value has been reported?
0.915

Entry under review: CC(C)(O/N=C(\C(=O)N[C@@H]1C(=O)N2C(C(=O)[O-])=C(C[n+]3ccccc3)CS[C@H]12)c1csc(N)n1)C(=O)O [Ceftazidime pentahydrate] . Reported glomerular separation?
0.761

Which glomerular separation reading was recorded for the compound O=C(O)CN(CCN(CC(=O)O)CC(=O)O)CCN(CC(=O)O)CC(=O)O ?
1.23

Data request, read-out glomerular separation, for CC(=O)OC(C)C[N+](C)(C)C (stereo not given) [Methacholine chloride]
0.765

Look up glomerular separation for this compound: CN[C@H]1CC[C@@H](c2ccc(Cl)c(Cl)c2)c2ccccc21
0.914

Query (compound): Oc1ncnc2[nH]ncc12 ; field requested: glomerular separation
0.837

Fill in: glomerular separation of OC(Cn1cncn1)(Cn1cncn1)c1ccc(F)cc1F is ___
1.11

Fill in the blank: the reported glomerular separation of CC(C)NC[C@H](O)COc1cccc2ccccc12 [(S)-propranolol hydrochloride] is ____.
0.888

Given Fc1ccc([C@@H]2CCNC[C@H]2COc2ccc3c(c2)OCO3)cc1 [Paroxetine Hydrochloride] , state its recorded glomerular separation.
0.594

Dear colleague, I am looking for the recorded glomerular separation of the following compound: C[C@@H](O)[C@H]1C(=O)N2C(C(=O)O)=C(SCCNC=N)C[C@H]12
0.805

Suppose we examine the compound CN(C)CCC[C@@]1(c2ccc(F)cc2)OCc2cc(C#N)ccc21 [Escitalopram oxalate] ; what glomerular separation value has been reported?
1.13

Which value of glomerular separation has been reported for OCCN1CCN(CCCN2c3ccccc3Sc3ccc(C(F)(F)F)cc32)CC1 [Fluphenazine dihydrochloride] in the records?
1.03

Report glomerular separation for CCN(CC)CCOC(=O)C(c1ccccc1)c1ccccc1 [Adiphenine hydrochloride] please.
1.14

glomerular separation for CC(CCc1ccc(O)cc1)NCCc1ccc(O)c(O)c1 (stereo not given) [Dobutamine hydrochloride] ?
0.82

Which glomerular separation value belongs to CC(C)(C)NC[C@H](O)COc1ccccc1C1CCCC1 [Penbutolol sulfate] ?
0.661

I have this compound here, CN1[C@@H]2CC[C@H]1C[C@@H](OC(c1ccccc1)c1ccccc1)C2 [Benztropine mesylate] , and I need its recorded glomerular separation.
0.821

Requested read-out: glomerular separation. Entry: Nc1nc(N)nc(-c2cc(Cl)ccc2Cl)n1 [Irsogladine maleate]
1.11

May I ask what glomerular separation has been recorded for CS(=O)(=O)OCCCCOS(C)(=O)=O ?
0.771

Please report the recorded glomerular separation for S=c1[nH]cnc2nc[nH]c12 .
0.832

---

Tested on: Danio rerio Tg(wt1b:EGFP) embryo, pronephros
EXPERIMENT_SUMMARY: fraction of imaged embryos annotated as normal kidney; higher = less nephrotoxic; extreme values may be limits of the assay
MEASUREMENT_PARAMETERS: 25 µM; exposure: 24-48 hpf
Where a name gives a salt, the structure may show the parent alone.
Each item that follows carries a reported fraction of imaged embryos annotated as normal kidney.
Answer as a number with no unit attached.

Here is how some compounds turned out for fraction of imaged embryos annotated as normal kidney.
COMPOUND	MEASURED_NUMBER
CCCN(CCC)S(=O)(=O)c1ccc(C(=O)O)cc1 [Probenecid]	0.833
CC(=O)Nc1ccc(CC(=O)O)cc1 [Actarit]	0.667
CC(C)Cc1ccc([C@H](C)C(=O)O)cc1 [S-(+)-ibuprofen]	0
CN(C)CCC[C@@]1(c2ccc(F)cc2)OCc2cc(C#N)ccc21 [Escitalopram oxalate]	0.833
CC(C)(C#N)c1cc(Cn2cncn2)cc(C(C)(C)C#N)c1 [Anastrozole]	0.75
CCN(CC)C(=O)Nc1ccc(OCC(O)CNC(C)(C)C)c(C(C)=O)c1 (stereo unspecified) [Celiprolol hydrochloride]	0.833

// query fraction of imaged embryos annotated as normal kidney value for entry CCOC(=O)O[C@]1(C(=O)OCCl)CC[C@H]2[C@@H]3CCC4=CC(=O)C=C[C@]4(C)[C@H]3[C@@H](O)C[C@@]21C [Loteprednol etabonate]
0.833

Which fraction of imaged embryos annotated as normal kidney value belongs to CO[C@@H]1[C@@H](O[C@@H]2O[C@H](C)[C@@H](O[C@H]3C[C@@](C)(O)[C@@H](OC(=O)CC(C)C)[C@H](C)O3)[C@H](N(C)C)[C@H]2O)[C@@H](CC=O)C[C@@H](C)[C@@H](O)/C=C/C=C/C[C@@H](C)OC(=O)C[C@H]1OC(C)=O [Josamycin] ?
0.909

Look at this compound and give its reported fraction of imaged embryos annotated as normal kidney. O=C(CCCN1CCC(O)(c2ccc(Br)cc2)CC1)c1ccc(F)cc1 [Bromperidol]
1

---

Test system: Danio rerio Tg(wt1b:EGFP) embryo, pronephros
EXPERIMENT_SUMMARY: glomerular width (mean of left and right), fold change vs DMSO control; higher = wider glomerulus
MEASUREMENT_PARAMETERS: 25 µM; exposure: 24-48 hpf
Structures can show the parent of a compound that is named as a salt.
Quick rule: glomerular width of at least 1 means fulfilled, below that means not fulfilled.

COMPOUND	LABEL_VALUE
CC1=C(CC(=O)O)c2cc(F)ccc2/C1=C\c1ccc([S+](C)[O-])cc1 (configuration not stated) [Sulindac]	not fulfilled
Cc1cc(NC(=O)C2=C(O)c3ccccc3S(=O)(=O)N2C)no1 [Isoxicam]	fulfilled
O=C(O)CCC(=O)Nc1ccc(S(=O)(=O)Nc2nccs2)cc1 [Succinylsulfathiazole]	fulfilled
CC(C)(C)NC[C@H](O)COc1cccc2c1CCCC2=O [(-) -Levobunolol hydrochloride]	fulfilled
C[C@H]1C[C@@H]2[C@H]([C@@H](O)C[C@@]3(C)[C@H]2CC[C@]3(O)C(=O)CO)[C@@]2(C)C=CC(=O)C=C12 [Methylprednisolone, 6-alpha]	fulfilled
C[C@]12CCC(=O)C=C1C=C[C@@H]1[C@@H]2CC[C@@]2(C)[C@H]1CC[C@@]21CCC(=O)O1 [Canrenone]	not fulfilled

Evaluate CN(C)c1cc(NC(=O)CNC(C)(C)C)c(O)c2c1C[C@H]1C[C@H]3[C@H](N(C)C)C(O)=C(C(N)=O)C(=O)[C@@]3(O)C(O)=C1C2=O [Tigecycline] : glomerular width at minimum 1?
fulfilled

Tell me whether glomerular width is at least 1 here: Nc1nc(=O)n([C@@H]2CS[C@H](CO)O2)cc1F [(-)-Emtricitabine]
fulfilled

Dear colleague, could you confirm whether CCCC(CCC)C(=O)O [Valproic acid] has glomerular width at or above 1?
not fulfilled

Check if glomerular width >= 1 (inclusive). Item: O=C(O)CCc1nc(-c2ccccc2)c(-c2ccccc2)o1 [Oxaprozin]
not fulfilled

Hello, I need to know if Clc1ccc(C(c2ccccc2Cl)C(Cl)Cl)cc1 (configuration not stated) [Mitotane] has measured glomerular width not below 1. Thanks!
not fulfilled

Item CN(C)CCCN1c2ccccc2Sc2ccc(C(F)(F)F)cc21 [Triflupromazine hydrochloride] with glomerular width of 1 or above?
fulfilled

Hello, I need to know if Cc1oncc1C(=O)Nc1ccc(C(F)(F)F)cc1 [Leflunomide] has measured glomerular width not below 1. Thanks!
fulfilled

Hi, just wondering whether CNCCC(Oc1ccc(C(F)(F)F)cc1)c1ccccc1 (configuration not stated) [Fluoxetine hydrochloride] shows glomerular width of 1 or higher.
not fulfilled

Test whether the compound COc1cccc2c1C(=O)c1c(O)c3c(c(O)c1C2=O)C[C@@](O)(C(=O)CO)C[C@@H]3O[C@H]1C[C@H](N)[C@@H](O)[C@H](C)O1 [Epirubicin hydrochloride] records glomerular width of 1 or higher.
fulfilled
